Numbers sourced from paper PMC6270666.

Target: cloned human M1 mAChRs (Homo sapiens, UniProt P11229)
Construct: purchased Perkin Elmer; host or cells: stably transfected CHO-K1 cell lines (membrane preparation)
Assay: M1 mAChR radioligand binding assay ([3H]N-methylscopolamine displacement)
Settings: displacement of [3H]N-methylscopolamine 0.2 nM, M1 mAChR membranes from CHO-K1 cells, 27 °C, 120 min, mean ± SEM (n = 2); read-out: IC50
pIC50: −log10 of the molar value.
measure: pIC50

compound: O=c1c(O)c(-c2ccc(O)cc2)oc2cc(O)cc(O)c12
pIC50: < 2.00
--
compound: O=c1c(O)c(-c2ccc(O)c(O)c2)oc2cc(O)cc(O)c12
pIC50: < 2.00
--
compound: COc1cc(OC)c2c(=O)cc(-c3cc(OC)c(OC)c(OC)c3)oc2c1
pIC50: < 2.00

I have 3 compounds here; please give me pIC50 for each one.
1. COc1cc(-c2cc(=O)c3c(OC)c(OC)c(OC)cc3o2)cc(OC)c1OC
2. O=c1c(O)c(-c2ccc(O)c(O)c2)oc2cc(O)ccc12
3. COc1cc(O)c2c(=O)c(O)c(-c3ccc(OC)c(O)c3)oc2c1 [Compound 9, 3ʹ,3,5-Trihydroxy-4ʹ,7-dimethoxyflavone]

1: 3.59; 2: < 2.00; 3: 4.00

Would you be so kind as to report pIC50 for each listed record?
1. COc1ccc(-c2oc3cc(OC)c(OC)cc3c(=O)c2O)cc1OC [Compound 10, 3-Hydroxy-3ʹ,4ʹ,6,7-tetramethoxyflavone]
2. COc1ccc(-c2cc(=O)c3c(OC)c(OC)c(OC)cc3o2)cc1OC

1: < 2.00; 2: < 2.00

* * *

Biological target: cloned human M1 mAChRs (Homo sapiens)
Construct: purchased Perkin Elmer; host or cells: stably transfected CHO-K1 cell lines (membrane preparation)
Test: M1 mAChR radioligand binding assay ([3H]N-methylscopolamine displacement)
measure: pKi
Answers are plain numbers, as −log10 of the molar value.

Report the value of pKi obtained on cloned human M1 mAChRs (Homo sapiens) for `O=c1cc(-c2ccc(O)c(O)c2)oc2cc(O)cc(O)c12` . 4.03

* * *

Biological target: cloned human M1 mAChRs (Homo sapiens)
Construct: purchased Perkin Elmer; host or cells: stably transfected CHO-K1 cell lines (membrane preparation)
Sequence (P11229 1-460): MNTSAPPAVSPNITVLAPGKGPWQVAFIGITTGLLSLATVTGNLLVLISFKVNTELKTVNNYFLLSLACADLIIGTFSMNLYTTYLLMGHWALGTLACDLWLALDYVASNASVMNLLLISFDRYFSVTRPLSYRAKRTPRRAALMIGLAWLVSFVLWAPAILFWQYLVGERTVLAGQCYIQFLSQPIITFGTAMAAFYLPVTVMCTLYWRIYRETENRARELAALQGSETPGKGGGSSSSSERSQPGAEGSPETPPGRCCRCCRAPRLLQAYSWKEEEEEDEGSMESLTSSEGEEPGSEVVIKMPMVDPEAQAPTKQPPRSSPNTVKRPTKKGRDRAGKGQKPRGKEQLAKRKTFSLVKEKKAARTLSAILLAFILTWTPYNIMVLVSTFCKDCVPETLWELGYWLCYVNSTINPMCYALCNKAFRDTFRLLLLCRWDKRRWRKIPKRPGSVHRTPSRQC
Test: M1 mAChR radioligand binding assay ([3H]N-methylscopolamine displacement)
pIC50: −log10 of the molar value.
Please respond with reported pIC50 for every item in the list.

smilesRecord: O=c1cc(-c2ccc(O)cc2)oc2cc(O)cc(O)c12
pIC50: < 2.00
--
smilesRecord: O=c1c(O)c(-c2cc(O)c(O)c(O)c2)oc2cc(O)cc(O)c12
pIC50: < 2.00

Please give pIC50 for each item listed below.
1. COc1cc(OC)c2c(=O)cc(-c3ccc(OC)c(OC)c3)oc2c1
2. O=c1cc(-c2ccc(O)c(O)c2)oc2cc(O)cc(O)c12

< 2.00
3.65
